# System Name: FOLR1 (human, UniProt P15328)
# Sequence (P15328 25-234): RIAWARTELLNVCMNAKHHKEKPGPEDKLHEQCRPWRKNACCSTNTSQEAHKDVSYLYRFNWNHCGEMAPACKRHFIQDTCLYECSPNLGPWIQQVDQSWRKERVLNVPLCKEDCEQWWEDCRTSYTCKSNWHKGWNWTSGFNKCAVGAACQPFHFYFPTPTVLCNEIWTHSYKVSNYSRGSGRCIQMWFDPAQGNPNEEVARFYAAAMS
# Test Name: FACS, FOLR+ KB cells
Readout: pKd
Notebook: values listed as pKd are -log10 of the concentration (mol/L).

// RGVPHIVMVDAYKRYKG (biotinylated; two D-arginine substitutions; additional C-terminal Lys conjugated to folate (folate is the FOLR1-binding moiety)) [b-SpyTag003(D2)-K(folate)] : pKd value = 7.79

Sourced from patent US20260345776
